target-or-system: T1, recombinant human HER3 (human, UniProt P21860 20-643)
T1 construct: Bought reagent
experiment: SPR (Biacore T200), HER3 captured via anti-His, Fab analyte;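 further: single cycle kinetics with five Fab concentrations, referenced against a blank flow cell and mock-buffer injections, sensorgrams fit to a 1:1 binding model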
Answer each item with its documented Kd.
# value in nM; strip the unit string

# input Tell me the measured Kd of H3 wild-type lambda Fab (Fab, V domains shown, Truncated heavy chain (VH-CH1-upper IgG1 hinge) and 'wild-type' lambda light chain (H3 VL + IGLC2); also called WT; H3 Fab) VH: QVQLQESGGGLVKPGGSLRLSCAASGFTFSSYWMSWVRQAPGKGLEWVANINRDGSASYYVDSVKGRFTISRDDAKNSLYLQMNSLRAEDTAVYYCARDRGVGYFDLWGRGTLVTVSS VL: QSALTQPASVSGSPGQSITISCTGTSSDVGGYNFVSWYQQHPGKAPKLMIYDVSDRPSGVSDRFSGSKSGNTASLIISGLQADDEADYYCSSYGSSSTHVIFGGGTKVTVLG , please.
# output 92.4

# input // query Kd value for entry H3 designed Vlambda-Ckappa chimeric Fab, design 32 (E83I_D85T) (Fab, name in Kabat numbering, V domains shown) VH: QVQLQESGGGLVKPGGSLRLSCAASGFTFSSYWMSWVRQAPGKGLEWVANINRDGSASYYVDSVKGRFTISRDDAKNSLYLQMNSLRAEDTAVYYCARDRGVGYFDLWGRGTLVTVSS VL: QSALTQPASVSGSPGQSITISCTGTSSDVGGYNFVSWYQQHPGKAPKLMIYDVSDRPSGVSDRFSGSKSGNTASLIISGLQADDIATYYCSSYGSSSTHVIFGGGTKVTVLR
# output 83.8

# input Would you mind telling me what Kd value was observed for H3 designed Vlambda-Ckappa chimeric Fab, design 29 (E83V_D85T_T105E_V106I) (Fab, name in Kabat numbering, V domains shown) VH: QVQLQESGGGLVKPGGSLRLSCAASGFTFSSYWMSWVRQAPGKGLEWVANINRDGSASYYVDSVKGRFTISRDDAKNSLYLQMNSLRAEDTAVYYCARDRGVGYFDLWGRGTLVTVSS VL: QSALTQPASVSGSPGQSITISCTGTSSDVGGYNFVSWYQQHPGKAPKLMIYDVSDRPSGVSDRFSGSKSGNTASLIISGLQADDVATYYCSSYGSSSTHVIFGGGTKVEILR ?
# output 77
